- assay_method_text: AUC (0 to infinity) in BTBR mouse at 6 mg/kg, ip administered as single dose by LC-MS/MS analysis
- Format: ADME, organism-based
- Design: time infinity, route intraperitoneal, dose 6 mg/kg
- run_parameters: in vivo
value_kind: AUC(0-inf) (ng·h/mL)
Answers are plain numbers, in ng·h/mL.

1) O=C(c1nc2ccc(F)cc2[nH]1)c1c[nH]c2c(F)cccc12    696

Moving on to another molecule below.
Item: `O=C(c1cc2cc(F)ccc2[nH]1)c1c[nH]c2c(F)cccc12` | AUC(0-inf): 610

====

- study_target: Proprotein convertase subtilisin/kexin type 9 (Homo sapiens, UniProt Q8NBP7)
- Sequence (Q8NBP7 31-152 limits assumed): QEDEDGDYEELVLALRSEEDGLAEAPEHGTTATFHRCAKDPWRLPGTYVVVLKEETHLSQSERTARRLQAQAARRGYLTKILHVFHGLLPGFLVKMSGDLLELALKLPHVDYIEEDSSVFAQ
- Sequence (Q8NBP7 153-692 limits assumed): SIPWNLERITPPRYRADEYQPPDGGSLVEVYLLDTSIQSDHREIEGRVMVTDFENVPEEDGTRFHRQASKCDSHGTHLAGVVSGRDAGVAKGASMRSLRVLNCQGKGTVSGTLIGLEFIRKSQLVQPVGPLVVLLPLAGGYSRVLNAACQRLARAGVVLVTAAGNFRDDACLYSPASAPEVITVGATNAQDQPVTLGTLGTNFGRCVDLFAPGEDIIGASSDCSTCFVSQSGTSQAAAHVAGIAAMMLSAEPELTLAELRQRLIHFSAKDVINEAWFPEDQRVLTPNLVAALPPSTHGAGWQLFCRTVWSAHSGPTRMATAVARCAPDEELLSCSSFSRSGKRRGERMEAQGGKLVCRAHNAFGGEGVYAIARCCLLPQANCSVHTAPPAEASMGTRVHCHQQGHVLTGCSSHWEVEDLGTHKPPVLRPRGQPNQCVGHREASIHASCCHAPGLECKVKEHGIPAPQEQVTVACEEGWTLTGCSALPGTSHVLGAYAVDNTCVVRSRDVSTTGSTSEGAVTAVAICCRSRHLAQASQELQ
- assay_method_text: Modulation of PCSK9 in human HepG2 cells assessed as reduction in PCSK9 expression at 1 uM incubated for 24 hrs prior to compound washout followed by compound addition and measured after 24 hrs by ELISA
- Format: cell-based
- run_parameters: filed as modulator, time 48.0 hrs
Calls of active or inactive are those of the source. The rule behind the calls is not given here.
value_kind: Activity

1) Fc1ccc2nc(Cc3c[nH]c4c(F)cccc34)[nH]c2c1    Active
2) O=C(c1cc2cc(F)ccc2[nH]1)c1c[nH]c2c(F)cccc12    Active
3) Fc1ccc2[nH]c(Cc3c[nH]c4c(F)cccc34)cc2c1    Active
4) O=C(c1nc2ccc(F)cc2[nH]1)c1c[nH]c2c(F)cccc12    90%

====

So I've got a bunch of compounds here, and I need their t1/2 values.
- assay_method_text: Half life in mouse liver microsomes measured after 60 mins in presence of NADPH by LC-MS/MS analysis
- Format: ADME, Microsome
- run_parameters: 1 h
Answers are plain numbers, in min.

Worked set:
1) O=C(c1nc2ccccc2[nH]1)c1c[nH]c2ccccc12    25.8
2) Fc1ccc2[nH]c(Cc3c[nH]c4c(F)cccc34)cc2c1    16.5
3) O=C(c1cc2cc(F)ccc2[nH]1)c1c[nH]c2c(F)cccc12    40.1

Working through the 3 compounds below one at a time, give t1/2 for each.
1. Fc1ccc2nc(Cc3c[nH]c4c(F)cccc34)[nH]c2c1
2. [2H]C([2H])(c1nc2cc(F)ccc2[nH]1)c1c[nH]c2c(F)cccc12
3. O=C(c1nc2ccc(F)cc2[nH]1)c1c[nH]c2c(F)cccc12

7.1
16.3
30

====

- study_target: Proprotein convertase subtilisin/kexin type 9 (Homo sapiens)
- assay_method_text: Modulation of PCSK9 in human HepG2 cells assessed as reduction in PCSK9 expression incubated for 24 hrs prior to compound washout followed by compound addition and measured after 24 hrs by ELISA
Label scheme, based on EC50: zone 1: < 1 nM; zone 2: ≥ 1 nM and < 40 nM; zone 3: ≥ 40 nM

1) Cn1c(C(=O)c2cn(CCCCN3CCOCC3)c3c(F)cccc23)nc2ccc(F)cc21    zone 3
2) CCCCn1cc(C(=O)c2nc3ccc(F)cc3n2C)c2cccc(F)c21    zone 1
3) Cn1c(C(=O)c2cn(S(=O)(=O)CCN3CCOCC3)c3c(F)cccc23)nc2ccc(F)cc21    zone 1

State the class of the compound shown: `Cn1c(C(=O)c2cn(S(=O)(=O)CCN3CCNCC3)c3c(F)cccc23)nc2ccc(F)cc21`
zone 3

Which EC50 category applies to `Cn1c(C(=O)c2c[nH]c3c(F)cccc23)nc2ccc(F)cc21` here?
zone 1

Please let me know in which category the item `Cn1c(C(=O)c2cn(CCN3CCOCC3)c3c(F)cccc23)nc2ccc(F)cc21` belongs.
zone 2

Please let me know in which category the item `Cn1cc(C(=O)c2nc3ccc(F)cc3n2C)c2cccc(F)c21` belongs.
zone 2

Which category fits this record: `Fc1ccc2nc(Cc3c[nH]c4c(F)cccc34)[nH]c2c1`
zone 3

Category of `O=C(c1nc2ccc(F)cc2[nH]1)c1c[nH]c2c(F)cccc12` :
zone 2
